B1: library; a variant is named by its letters at N, in order (parent)
chain: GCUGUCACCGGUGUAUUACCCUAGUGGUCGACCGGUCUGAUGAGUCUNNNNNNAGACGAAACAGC

- Variants of: B1
- ASSAY COMMENT: FACS-Seq fitted mean relative fluorescence mCherry/BFP without ligand (log10 relative fluorescence); ligand: hypoxanthine (xanthine aptamer); higher = higher reporter protein expression
- SETTINGS: HEK293T, ligand present: no
Decide using FACS-Seq fitted mean (log10): a value greater than or equal to 0.4 is true, a smaller one is false.

| MUTANT | GROUP LABEL |
| --- | --- |
| CCCUAA | true |
| ACCGUA | false |
| UCCGUG | false |
| ACAGUC | true |
| AAAGGG | false |
| UGAUAU | false |
| UGAGUG | false |
| GGGAGU | false |
| UUUAAC | true |
| GAUGGA | true |
| CGUUUC | true |
| CAAGAG | false |
| GAUGAA | true |
| AUGUAU | false |
| GUCCGG | false |
| UACCUG | false |
| GACCCU | false |
| GUCUAA | false |
| GAUUGA | false |
| AUACAA | false |
| CUAGAC | false |
